Values from patent US12419877B2

procedureSummary: Solubility experiments (approximate solubility by solvent aliquot addition)
Assay type: physicochemical
studyConditions: organic solvent or mixture, thermodynamic from solid; Solvent: Diethyl ether; RT (ca. 22° C.); read-out: Solubility (mg/mL) RT (ca. 22° C.)
outcomeMeasure: solubility

Qu. Need solubility of O=C(O)CNC(=O)c1ncc(-c2cccc(Cl)c2)cc1O [Form A of Compound (I)] , thanks.
Ans. < 10 mg/mL

----------
procedureSummary: Solubility experiments (approximate solubility by solvent aliquot addition)
Format: physicochemical
studyConditions: organic solvent or mixture, thermodynamic from solid; Solvent: Trifluoroethanol (TFE); RT (ca. 22° C.); read-out: Solubility (mg/mL) RT (ca. 22° C.)
outcomeMeasure: solubility

Qu. Consider the molecule shown here: O=C(O)CNC(=O)c1ncc(-c2cccc(Cl)c2)cc1O [Form A of Compound (I)] What is its recorded solubility?
Ans. < 10 mg/mL

----------
procedureSummary: Solubility experiments (approximate solubility by solvent aliquot addition)
Assay type: physicochemical
studyConditions: organic solvent or mixture, thermodynamic from solid; Solvent: 1,2-Propanediol; ca. 50° C.; read-out: Solubility (mg/mL) (ca. 50° C.)
outcomeMeasure: solubility

Qu. Fill blank: measured solubility of the molecule O=C(O)CNC(=O)c1ncc(-c2cccc(Cl)c2)cc1O [Form A of Compound (I)] is ____.
Ans. 20 mg/mL

----------
procedureSummary: Solubility experiments (approximate solubility by solvent aliquot addition)
Format: physicochemical
studyConditions: organic solvent or mixture, thermodynamic from solid; Solvent: Chloroform; RT (ca. 22° C.); read-out: Solubility (mg/mL) RT (ca. 22° C.)
outcomeMeasure: solubility

Qu. Recorded solubility of O=C(O)CNC(=O)c1ncc(-c2cccc(Cl)c2)cc1O [Form A of Compound (I)] , please.
Ans. < 10 mg/mL

----------
procedureSummary: Solubility experiments (approximate solubility by solvent aliquot addition)
Assay type: physicochemical
studyConditions: organic solvent or mixture, thermodynamic from solid; Solvent: Anisole; ca. 50° C.; read-out: Solubility (mg/mL) (ca. 50° C.)
outcomeMeasure: solubility (mg/mL)
Respond with the bare value in mg/mL.

Qu. What solubility value was documented for this compound, O=C(O)CNC(=O)c1ncc(-c2cccc(Cl)c2)cc1O [Form A of Compound (I)] ?
Ans. 40

----------
procedureSummary: Solubility experiments (approximate solubility by solvent aliquot addition)
Format: physicochemical
studyConditions: organic solvent or mixture, thermodynamic from solid; Solvent: Acetone/Water (20%); ca. 50° C.; read-out: Solubility (mg/mL) (ca. 50° C.)
outcomeMeasure: solubility
Number first, unit second: that is the form wanted.

Qu. For O=C(O)CNC(=O)c1ncc(-c2cccc(Cl)c2)cc1O [Form A of Compound (I)] , what is its reported solubility?
Ans. 200 mg/mL

----------
procedureSummary: Solubility experiments (approximate solubility by solvent aliquot addition)
Format: physicochemical
studyConditions: organic solvent or mixture, thermodynamic from solid; Solvent: Anisole; RT (ca. 22° C.); read-out: Solubility (mg/mL) RT (ca. 22° C.)
outcomeMeasure: solubility

Qu. Given the compound O=C(O)CNC(=O)c1ncc(-c2cccc(Cl)c2)cc1O [Form A of Compound (I)] , what is its reported solubility?
Ans. < 40 mg/mL

----------
procedureSummary: Solubility experiments (approximate solubility by solvent aliquot addition)
Assay type: physicochemical
studyConditions: organic solvent or mixture, thermodynamic from solid; Solvent: Benzyl alcohol; ca. 50° C.; read-out: Solubility (mg/mL) (ca. 50° C.)
outcomeMeasure: solubility (mg/mL)
State just the number; it will be interpreted in mg/mL.

Qu. Would you kindly share the measured solubility for O=C(O)CNC(=O)c1ncc(-c2cccc(Cl)c2)cc1O [Form A of Compound (I)] ?
Ans. 68

----------
procedureSummary: Solubility experiments (approximate solubility by solvent aliquot addition)
Format: physicochemical
studyConditions: organic solvent or mixture, thermodynamic from solid; Solvent: Toluene; RT (ca. 22° C.); read-out: Solubility (mg/mL) RT (ca. 22° C.)
Protocol: Approximately 20 mg of Form A of Compound (1) was placed in each of 48 vials and 5 volume aliquots of the appropriate solvent systems were added to the appropriate vial. Between each addition, the mixture was checked for dissolution and if no dissolution was apparent, the mixture was warmed to ca. 50° C. and checked again. This procedure was continued until dissolution was observed or until 100 volumes of solvent had been added.
outcomeMeasure: solubility

Qu. Using the record for O=C(O)CNC(=O)c1ncc(-c2cccc(Cl)c2)cc1O [Form A of Compound (I)] , report its solubility.
Ans. < 10 mg/mL

----------
procedureSummary: Solubility experiments (approximate solubility by solvent aliquot addition)
Format: physicochemical
studyConditions: organic solvent or mixture, thermodynamic from solid; Solvent: Methanol (MeOH); RT (ca. 22° C.); read-out: Solubility (mg/mL) RT (ca. 22° C.)
Procedure: Approximately 20 mg of Form A of Compound (1) was placed in each of 48 vials and 5 volume aliquots of the appropriate solvent systems were added to the appropriate vial. Between each addition, the mixture was checked for dissolution and if no dissolution was apparent, the mixture was warmed to ca. 50° C. and checked again. This procedure was continued until dissolution was observed or until 100 volumes of solvent had been added.
outcomeMeasure: solubility

Qu. Please give the measured solubility for this compound: O=C(O)CNC(=O)c1ncc(-c2cccc(Cl)c2)cc1O [Form A of Compound (I)]
Ans. < 51 mg/mL

----------
procedureSummary: Solubility experiments (approximate solubility by solvent aliquot addition)
Type: physicochemical
studyConditions: organic solvent or mixture, thermodynamic from solid; Solvent: Methyl isobutyl ketone (MIBK); RT (ca. 22° C.); read-out: Solubility (mg/mL) RT (ca. 22° C.)
outcomeMeasure: solubility

Qu. solubility for O=C(O)CNC(=O)c1ncc(-c2cccc(Cl)c2)cc1O [Form A of Compound (I)] ?
Ans. < 34 mg/mL

----------
procedureSummary: Solubility experiments (approximate solubility by solvent aliquot addition)
Format: physicochemical
studyConditions: aqueous with cosolvent or surfactant or cyclodextrin, thermodynamic from solid; Solvent: MeOH/Water (50%); ca. 50° C.; read-out: Solubility (mg/mL) (ca. 50° C.)
outcomeMeasure: solubility

Qu. What value of solubility has been recorded for this entry: O=C(O)CNC(=O)c1ncc(-c2cccc(Cl)c2)cc1O [Form A of Compound (I)]
Ans. < 10 mg/mL
